Attribution: paper PMC11465619

- Assay system: electric eel acetylcholinesterase (AChE, Type–VI-S, EC 3.1.1.7) (Electrophorus electricus, UniProt O42275)
- Sequence (O42275 24-633): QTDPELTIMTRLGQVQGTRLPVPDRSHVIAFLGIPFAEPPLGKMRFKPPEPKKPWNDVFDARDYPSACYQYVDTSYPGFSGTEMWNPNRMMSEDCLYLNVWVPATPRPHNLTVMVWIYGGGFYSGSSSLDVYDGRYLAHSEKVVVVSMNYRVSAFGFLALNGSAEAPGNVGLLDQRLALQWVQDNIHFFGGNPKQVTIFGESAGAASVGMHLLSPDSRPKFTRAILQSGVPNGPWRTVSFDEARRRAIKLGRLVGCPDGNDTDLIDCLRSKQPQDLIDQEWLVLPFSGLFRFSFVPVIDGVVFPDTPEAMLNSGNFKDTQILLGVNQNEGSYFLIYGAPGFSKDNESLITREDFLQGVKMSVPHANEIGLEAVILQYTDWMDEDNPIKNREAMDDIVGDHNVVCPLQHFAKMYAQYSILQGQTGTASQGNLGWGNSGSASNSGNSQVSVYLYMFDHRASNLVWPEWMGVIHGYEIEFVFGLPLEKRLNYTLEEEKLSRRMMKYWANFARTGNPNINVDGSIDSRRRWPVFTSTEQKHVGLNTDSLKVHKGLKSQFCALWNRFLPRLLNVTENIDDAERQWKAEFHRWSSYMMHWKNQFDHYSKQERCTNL
Parameter measured: Ki (µM)
Answers are plain numbers, in µM.

Could you tell me which Ki is on file for O=S(=O)(N/N=C/c1ccccc1O)c1ccc(OC(F)(F)F)cc1 ?
28.2

====

- Assay system: horse reddish butyrylcholinesterase (BChE, EC 3.1.1.8) (Equus caballus)
- Sequence (P81908 whole entry): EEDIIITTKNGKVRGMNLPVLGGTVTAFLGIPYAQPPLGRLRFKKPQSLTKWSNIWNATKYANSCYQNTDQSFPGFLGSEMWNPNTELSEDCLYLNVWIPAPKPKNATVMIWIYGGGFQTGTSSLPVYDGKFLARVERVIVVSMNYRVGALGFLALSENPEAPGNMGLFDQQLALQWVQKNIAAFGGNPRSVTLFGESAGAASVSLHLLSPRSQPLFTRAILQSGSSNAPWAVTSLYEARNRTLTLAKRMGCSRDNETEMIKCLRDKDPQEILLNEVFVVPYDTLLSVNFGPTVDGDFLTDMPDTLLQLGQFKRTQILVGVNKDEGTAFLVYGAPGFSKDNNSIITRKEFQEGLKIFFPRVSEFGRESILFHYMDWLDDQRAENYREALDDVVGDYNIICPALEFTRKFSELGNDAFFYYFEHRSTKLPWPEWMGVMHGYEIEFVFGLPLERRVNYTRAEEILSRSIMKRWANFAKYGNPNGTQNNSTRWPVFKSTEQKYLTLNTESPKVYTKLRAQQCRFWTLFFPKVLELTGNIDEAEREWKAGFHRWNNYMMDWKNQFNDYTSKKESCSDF
- Method notes: biochemical
- Measurement conditions: mean ± SEM of three parallel measurements
Label Yes when IC50 < 100 µM; otherwise No.

Compound smiles | Category label
O=S(=O)(N/N=C/c1ccccc1O)c1cccc(C(F)(F)F)c1 | No

Now for a further compound.
Regarding O=S(=O)(N/N=C/c1ccccc1O)c1ccccc1OC(F)(F)F , kindly confirm whether its IC50 is beneath 100 µM.
Yes
